Ref: patent US4840947A

- Test system: 2-phenyl-1,4-benzoquinone induced writhing in mice
- test: Phenylquinone Induced Writhing in Mice (2-phenyl-1,4-benzoquinone, analgesia)
- Assay type: in vivo, mouse
- measurement-parameters: mice, at 20 mg/kg, s.c.
value-type: Percent Inhibition of phenylquinone induced writhing (%)
State just the number; it will be interpreted in %.

{"columns": ["compound", "val"],
 "data": [
  ["CCO.CN1CCC(C2Nc3ccccc3N3CCc4cccc2c43)CC1.O=C(O)/C=C/C(=O)O (stereo not shown)", 51]
]}

*Q* Fill in reported Percent Inhibition of phenylquinone induced writhing for this entry: CN1CCC(C2Nc3ccccc3N3CCCc4cccc2c43)CC1 (stereo not shown) [hemifumarate hemihydrate]
*A* 27

*Q* Give the reported Percent Inhibition of phenylquinone induced writhing for this compound. CCO.CN1CCC(C2Nc3ccccc3N3CCc4cc(Br)cc2c43)CC1 (stereo not shown)
*A* 47

*Q* For the compound CN1CCC(C2Nc3cc(F)ccc3N3CCc4cccc2c43)CC1 (stereo not shown) , give its measured Percent Inhibition of phenylquinone induced writhing value.
*A* 35
